B1: SNX3 (parent)
chain: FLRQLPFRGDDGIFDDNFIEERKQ

- Variants of: B1
- method-description: protein stability index of a GFP-peptide fusion (GPS, HEK-293T) (PSI 1-6); higher = more stable;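 further: lentivirally expressed fusions sorted by FACS into six bins by GFP to DsRed ratio, PSI derived from sequencing read proportions per bin multiplied by bin number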
- particulars: c terminus: a fixed tail appended
A collection of variants and their measured protein stability index

# variant, protein stability index
data = [
    ("D11L", 2.71),
    ("D10V", 3.72),
    ("E21T", 3.13),
    ("D11R", 2.46),
    ("R8I", 2.67),
    ("R22H", 3.19),
    ("F7R", 3.58),
    ("R8L", 2.95),
    ("Q24H", 2.91),
    ("L2C", 3.48),
    ("G9S", 3.41),
    ("Q24K", 4.36),
    ("E21A", 3.12),
    ("I13F", 3.03),
    ("I19F", 3.79),
    ("G9I", 2.9),
    ("Q24D", 3.62),
    ("F7M", 3.32),
    ("R8D", 2.9),
    ("L5D", 3.71),
    ("G9F", 3.36),
    ("K23S", 3.16),
    ("P6T", 2.92),
    ("F14K", 4.23),
    ("K23C", 3.36),
    ("N17V", 2.97),
    ("F14Y", 2.84),
    ("L5H", 3.22),
    ("D11C", 2.91),
    ("E20G", 3.17),
    ("L2N", 4.08),
    ("K23L", 2.49),
    ("D16S", 3.53),
    ("E21K", 3.33),
    ("R3T", 3.17),
    ("D16C", 3.05),
    ("F1N", 4.44),
    ("Q4M", 3.22),
    ("D10N", 2.64),
    ("L5M", 3.39),
    ("F7S", 3.76),
    ("F1S", 4.72),
    ("D15R", 2.71),
    ("D15H", 3.06),
    ("D15E", 3.18),
    ("I19W", 3.6),
    ("E21N", 3.01),
    ("K23P", 3.36),
    ("F18V", 3.67),
    ("P6C", 2.49),
    ("G12C", 3.03),
    ("L2V", 2.19),
    ("D10E", 3.33),
    ("F14A", 4.26),
    ("E20S", 2.93),
    ("Q4K", 2.67),
    ("D16H", 3.6),
    ("D11P", 4.1),
    ("F7D", 4.03),
    ("G9C", 2.79),
    ("P6M", 1.74),
    ("L2M", 4.01),
    ("Q24Y", 2.93),
    ("N17F", 2.58),
    ("R8G", 3.79),
    ("Q4I", 2.55),
    ("L5A", 3.1),
    ("I13K", 4.7),
    ("E20K", 3.74),
    ("G12T", 3.66),
    ("K23R", 2.95),
    ("N17E", 4.18),
    ("F7W", 3.05),
    ("E20C", 3.23),
    ("F1C", 4.1),
]
